Numbers sourced from PubChem BioAssay.

target: NADPH oxidase 4 (Homo sapiens) (UniProt Q9NPH5); assay: compounds shifting NOX4 Amplex Red fluorescence – cell-based, HEK293-NOX4, tetracycline-induced, NOX inhibitor project, primary screen (AID 1160); details: HEK293-NOX4, Amplex Red H2O2 fluorescence, 45 min; higher = more signal, called active from +8 up or from −8 down
Sequence (Q9NPH5 whole entry, looked up): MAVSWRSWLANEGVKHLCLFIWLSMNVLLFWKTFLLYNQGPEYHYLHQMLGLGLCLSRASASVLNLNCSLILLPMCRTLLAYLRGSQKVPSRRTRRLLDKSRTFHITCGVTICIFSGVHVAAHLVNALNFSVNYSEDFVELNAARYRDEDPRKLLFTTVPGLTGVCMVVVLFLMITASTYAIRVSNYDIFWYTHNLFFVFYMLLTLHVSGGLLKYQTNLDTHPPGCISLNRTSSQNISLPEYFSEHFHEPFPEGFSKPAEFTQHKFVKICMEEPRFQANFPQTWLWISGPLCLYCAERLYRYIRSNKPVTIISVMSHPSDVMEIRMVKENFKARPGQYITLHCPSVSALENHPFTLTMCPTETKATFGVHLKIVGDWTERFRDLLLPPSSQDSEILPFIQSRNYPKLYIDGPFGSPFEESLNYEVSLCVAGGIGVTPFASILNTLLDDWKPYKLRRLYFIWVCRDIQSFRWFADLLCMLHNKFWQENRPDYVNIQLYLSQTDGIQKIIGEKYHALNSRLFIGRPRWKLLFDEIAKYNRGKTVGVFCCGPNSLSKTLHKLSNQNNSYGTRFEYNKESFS
For each of the compounds below, state its z-score.
Just the number.

// Input: COC(=O)[C@@]1(Cc2ccccc2)[C@H]2c3cc(C(=O)N4CCCC4)n(Cc4ccc(OC(F)(F)F)cc4)c3C[C@H]2CN1C(=O)c1ccccc1 . Output its z-score only.
1.34

// Input: C[C@H]1ON(c2ccccc2)[C@@H](c2ccccc2)[C@@H]1C(=O)N1C(=O)OC[C@@H]1c1ccccc1 . Output its z-score only.
-0.28

// Input: COCCCNC(=O)[C@]1(Cc2ccccc2)N=C(c2ccc(OCCCO)cc2)O[C@@H]1c1ccccc1N=[N+]=[N-] . Output its z-score only.
-2.84

// Input: C=CCOc1ccc([C@@H]2CC=C(C(=O)OCC)[C@H](c3cccc(Br)c3)N2S(=O)(=O)c2ccc(C)cc2)cc1 . Output its z-score only.
0.399

###

For each of the compounds below, state its composite z-score.
target: Dihydroorotate dehydrogenase (quinone), mitochondrial (Plasmodium falciparum (isolate 3D7)) (UniProt Q08210); experiment: inhibition of P. falciparum DHODH – biochemical, C-terminal His tag, absorbance 600 nm, primary screen (AID 1175); conditions: PfDHODH enzyme, DCIP absorbance 600 nm; higher = more signal, called active from +8 up or from −8 down;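 note: recombinant parasite enzyme with a five histidine tag at its C terminus; test concentration not given here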
Sequence (Q08210 whole entry, looked up): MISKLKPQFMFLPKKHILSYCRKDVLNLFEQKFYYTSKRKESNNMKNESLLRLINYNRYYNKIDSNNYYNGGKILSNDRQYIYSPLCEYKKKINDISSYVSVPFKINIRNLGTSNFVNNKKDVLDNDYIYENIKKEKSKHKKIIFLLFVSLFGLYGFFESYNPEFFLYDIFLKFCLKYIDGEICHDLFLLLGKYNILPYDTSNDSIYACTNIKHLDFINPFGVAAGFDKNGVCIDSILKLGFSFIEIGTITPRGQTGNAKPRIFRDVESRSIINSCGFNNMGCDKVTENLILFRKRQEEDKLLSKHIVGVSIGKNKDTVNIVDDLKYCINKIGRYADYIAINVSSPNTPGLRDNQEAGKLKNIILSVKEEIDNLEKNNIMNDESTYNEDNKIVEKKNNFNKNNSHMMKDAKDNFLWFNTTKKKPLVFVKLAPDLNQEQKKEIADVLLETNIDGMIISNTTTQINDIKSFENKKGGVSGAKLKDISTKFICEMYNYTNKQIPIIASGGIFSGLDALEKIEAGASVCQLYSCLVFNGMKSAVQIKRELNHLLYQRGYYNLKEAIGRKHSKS
Just the number.

// Input: C=CCNC(=O)[C@H]1[C@@H]2C(=O)O[C@@H](c3ccccc3)[C@@H](c3ccccc3)N2[C@@H](c2ccc(OCCO)cc2)[C@]12C(=O)N(C(=O)OCCOC)c1ccc(C#CC3=CCCCC3)cc12 . Output its composite z-score only.
-0.91

// Input: C[C@H]1ON(c2ccccc2)[C@@H](c2ccccc2)[C@@H]1C(=O)N1C(=O)OC[C@@H]1c1ccccc1 . Output its composite z-score only.
-0.199

// Input: CO[C@H]1O[C@H](CO)[C@@H](OC(=O)c2ccc(Br)cc2)[C@@H]2OC(=O)[C@H](Cc3cccc(Br)c3)C/C=C/C[C@@H](Cc3cccc(Br)c3)C(=O)O[C@@H]12 . Output its composite z-score only.
-0.71

// Input: C=C(C(=O)CC[C@H](OC(=O)c1cccnc1)c1ccc(OCCO)cc1)C(C)C . Output its composite z-score only.
0.349

// Input: COc1ccc(C#Cc2ccc3c(c2)[C@]2(C(=O)N3)[C@H](C(N)=O)[C@H]3C(=O)O[C@H](c4ccccc4)[C@H](c4ccccc4)N3[C@@H]2c2ccc(O)cc2)cc1 . Output its composite z-score only.
0.817

// Input: C[C@]12C(=O)N(CCCCCO)[C@@H]3C(=O)N(c4ccc(Cl)cc4)CC=CC31O[C@@H]1/C=C\CCCOC(=O)C12 (some centres not stated) . Output its composite z-score only.
-0.841

// Input: O=C1NC(=O)C2C1C=CC(C(O)c1ccc3c(c1)OCO3)N2Nc1ccc(Cl)cc1Cl (configuration not stated) . Output its composite z-score only.
-0.703

###

biological target: Albumin (Bos taurus) (UniProt P02769); test: compounds binding labelled BSA control protein – biochemical, small-molecule microarray, Alexa647 label, 635/667 nm fluorescence, artefact control for SMM control protein annotation, profiling panel (AID 1118); settings: BSA-A647 binding, fluorescence 635 nm, higher = more signal;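 note: score merges 667 nm emission intensity and signal-to-noise per printed compound spot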
Sequence (P02769 whole entry, looked up): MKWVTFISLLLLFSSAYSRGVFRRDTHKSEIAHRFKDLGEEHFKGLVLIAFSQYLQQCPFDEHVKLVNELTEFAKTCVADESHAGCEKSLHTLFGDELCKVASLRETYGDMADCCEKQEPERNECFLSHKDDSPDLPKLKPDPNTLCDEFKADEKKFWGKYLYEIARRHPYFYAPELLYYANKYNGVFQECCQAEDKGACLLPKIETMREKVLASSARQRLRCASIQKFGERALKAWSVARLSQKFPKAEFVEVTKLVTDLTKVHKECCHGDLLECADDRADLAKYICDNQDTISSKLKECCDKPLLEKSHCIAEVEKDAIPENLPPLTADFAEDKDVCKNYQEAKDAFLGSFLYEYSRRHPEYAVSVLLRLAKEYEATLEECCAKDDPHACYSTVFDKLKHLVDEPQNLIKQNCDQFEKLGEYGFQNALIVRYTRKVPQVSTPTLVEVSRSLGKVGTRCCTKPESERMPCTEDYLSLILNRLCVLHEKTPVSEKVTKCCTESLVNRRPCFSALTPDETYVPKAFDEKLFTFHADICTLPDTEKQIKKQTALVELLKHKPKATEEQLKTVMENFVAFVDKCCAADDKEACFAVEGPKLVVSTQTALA
We use 0.7 as the dividing line for composite z-score: on or above the line is class 1, below is class 0.

Item C[C@@]1([C@@H](NC(=O)c2cccs2)c2ccc(-c3ccccc3)cc2)C[C@H]1C1CCCCC1 with composite z-score of 0.7 or above?
class 0

Item CCOC(=O)C[C@H]1[C@H](OC(=O)c2ccccc2-c2ccccc2)[C@@H](NC(=O)c2ccccc2)c2cc(OCCCO)ccc2N1C(=O)Cc1ccc(OC)cc1 with composite z-score of 0.7 or above?
class 0

Item NC(=O)NCC#Cc1ccc2c(c1)[C@]1(C(=O)N2)[C@H](c2ccc(O)cc2)N2[C@H](c3ccccc3)[C@H](c3ccccc3)OC(=O)[C@H]2[C@@H]1C(N)=O with composite z-score of 0.7 or above?
class 0

Item CCC[C@@H]1C[C@@]1(CCC)[C@@H](NC(=O)c1cccs1)c1ccc(Cl)cc1 with composite z-score of 0.7 or above?
class 0

Item O=C1NC(=O)C2C1C=CC(C(O)c1ccc3c(c1)OCO3)N2Nc1ccc(Cl)cc1Cl (configuration not stated) with composite z-score of 0.7 or above?
class 1

Item CCCc1cc2c(n1Cc1ccc(OC)cc1)C(C)C1CN(C(=O)c3ccccc3)C(C)(C(=O)OC)C21 (configuration not stated) with composite z-score of 0.7 or above?
class 1
